Target: T1, Cynomolgus TNFR2-His (Sino 90102-C08H) (cynomolgus monkey, UniProt A0A2K5VET2 132-366)
T1 construct: Bought protein; also called cynomolgus monkey TNFR2; recombinant cynomolgus monkey TNFR2 protein; not shown: His tag
T1 sequence: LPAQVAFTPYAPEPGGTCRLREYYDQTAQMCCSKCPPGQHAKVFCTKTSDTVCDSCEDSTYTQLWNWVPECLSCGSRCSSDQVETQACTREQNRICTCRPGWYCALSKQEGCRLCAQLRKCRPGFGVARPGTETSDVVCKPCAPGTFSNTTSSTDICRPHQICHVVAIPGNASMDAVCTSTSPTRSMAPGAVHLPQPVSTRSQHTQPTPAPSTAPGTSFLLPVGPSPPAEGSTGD
Test: ELISA, cynomolgus TNFR2-His coated
Experimental: The test humanized antibody against TNFR2 (as described in Example 1, the antibody was comprised of variable regions linked to IgG-Fc; the WT chimeric antibody also adopted the IgG-Fc structure) was subjected to 3.33-fold gradient dilution, loaded with 100 μl/well, and incubated with shaking at room temperature for 1.5 hours. […] A stop solution was added to stop the reaction, and then a microplate reader (MD 13) was used to read the absorbance value. […]
Reported EC50 values are given for each entry in this list.

# binder, EC50 / ng/mL
data = [
    ("219-Hu2 (antibody, V domains shown, also called VH4 + VL5) VH: QVQLVQSGAEVKKPGSSVKVSCKASGYSFTNYWMNWVRQAPGQGLEWMGMIHPSDTETRLNQNFKDKATITADKSTSTAYMELSSLRSEDTAVYYCARGEGLGAARSVSMDYWGQGTLVTVSS VL: DIQMTQSPSSLSASVGDRVTITCRASQDISNYLNWYQQKPDGTVKLLIYYTAILHSGVPSRFSGSGSGTDYSLTISSLQPEDFATYFCQQGNTLPWTFGQGTKVEIK", 11.3),
    ("224-Hu1 (antibody, V domains shown, Humanized form of #224; also called VH8 + VL6) VH: QVQLVQSGAEVKKPGASVKVSCKASGFNNKDIYMHWVRQAPGQGLEWIGRIDPATGNTKHDPKFQDRVTMTSDTSTNTVYMELSSLRSEDTAVYYCARSPYGDFGAMDYWGQGTLVTVSS VL: DIQMTQSPSSLSASVGDRVTITCTASSSVSSNYLHWYQQKPGKAPKLWIYSTSNLPSGVPSRFSGSGSGTDFTLTISSLQPEDFATYYCHQYHRSPWTFGQGTKVEIK", 9.98),
    ("224-Hu5 (antibody, V domains shown, Humanized form of #224; also called VH9 + VL9) VH: QVQLVQSGSELKKPGASVKVSCKASGFNNKDIYMHWVRQAPGQGLEWMGRIDPATGNTKHDPKFQDKAVLSSDTSVSTAYLQISSLKAEDTAVYYCARSPYGDFGAMDYWGQGTLVTVSS VL: DIQMTQSPSSLSASVGDRVTITCTASSSVSSNYLHWYQQKPGKAPKLLIYSTSNLPSGVPSRFSGSGSGTDYSLTISSLQPEDFATYYCHQYHRSPWTFGQGTKVEIK", 9.69),
    ("001-Hu2 (antibody, V domains shown, Humanized form of #001; also called VH2 + VL2) VH: EVQLVESGGGLVQPGGSLRLSCAASGFAFSTYDLSWVRQAPGKGLEWVAYINNGGISTYYSDTVKGRFTISRDNAKNSLYLQMNSLRAEDTAVYYCVRGPFYGSANYFDYWGQGTLVTVSS VL: DIQMTQSPSSLSASVGDRVTITCRTSESIYSNLPWYQQKPGKSPKLLIYDATKLAEGVPSRFSGSGSGTDFTLTISSLQPEDFATYYCQHFWVTPWTFGQGTKVEIK", 9.14),
    ("219-Hu1 (antibody, V domains shown, also called VH3 + VL5) VH: QVQLVQSGAEVKKPGASVKVSCKASGYSFTNYWMNWVRQAPGQRLEWMGMIHPSDTETRLNQNFKDRVTITRDTSASTAYMELSSLRSEDTAVYYCARGEGLGAARSVSMDYWGQGTLVTVSS VL: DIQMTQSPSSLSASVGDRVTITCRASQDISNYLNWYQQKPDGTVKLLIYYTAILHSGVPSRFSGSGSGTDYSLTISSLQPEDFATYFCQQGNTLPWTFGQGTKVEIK", 14.8),
]
